The reported numbers originate from patent US20230278997A1.

Experiment: Single dose pharmacokinetics (PK) study in male C57BL/6 mouse
Format: in vivo
Measurement Parameters: male, C57BL/6, plasma; mouse, IV bolus 1 mg/kg; read-out: VSS
Label Condition met when Vd < 0.6 L/kg; otherwise Condition not met.

Determine whether this molecule shows Vd lower than 0.6 L/kg (ties excluded): "CS(=O)(=O)C1(c2ccc(C(=O)NC34CC(c5cnn(-c6ccc(Cl)cc6)n5)(C3)C4)o2)CC1"
Condition not met

Confirm or reject: Vd of "CS(=O)(=O)C1(c2nsc(C(=O)NC34CC(c5noc(-c6ccc(Cl)cc6)n5)(C3)C4)n2)CC1" lies strictly below 0.6 L/kg
Condition not met

Please let me know if "CS(=O)(=O)C1(c2nsc(C(=O)NC34CC(c5cnn(-c6ccc(Cl)cc6)n5)(C3)C4)n2)CC1" shows Vd below 0.6 L/kg.
Condition met

is_below(Vd, 0.6 L/kg) for "CS(=O)(=O)C1(c2ccc(C(=O)NC34CC(c5noc(-c6ccc(Cl)cc6)n5)(C3)C4)o2)CC1" ?
Condition not met

Strictly below 0.6 L/kg in Vd? "CS(=O)(=O)C1(c2ccc(C(=O)NC34CC(c5nc(-c6ccc(Cl)cc6)no5)(C3)C4)o2)CC1"
Condition not met

Record "CS(=O)(=O)C1(c2ccc(C(=O)NC34CC(c5nc(-c6ccc(Cl)cc6)cs5)(C3)C4)o2)CC1" : is its Vd strictly below 0.6 L/kg?
Condition met

Confirm or reject: Vd of "CS(=O)(=O)C1(c2nsc(C(=O)NC34CC(c5ccnc(-c6ccc(Cl)cc6)n5)(C3)C4)n2)CC1" lies strictly below 0.6 L/kg
Condition met

---

Test system: primary human hepatocyte (PHH)
Experiment: Cytotoxicity in PHH natural infection assay (Cell Counting Kit-8)
Assay type: cell-based
Measurement Parameters: therapeutic index; CC50 by CCK8 in PHH over HBsAg IC50
I'd appreciate it if you could supply TI (CC50/IC50 HBsAg) values for the items below.
Just the number, please.

For primary human hepatocyte (PHH), give TI (CC50/IC50 HBsAg) of the listed compound: "CS(=O)(=O)C1(c2ccc(C(=O)NC34CC(c5csc(-c6ccc(Cl)cc6)n5)(C3)C4)o2)CC1"
39.46

GET TI (CC50/IC50 HBsAg) where system = primary human hepatocyte (PHH) and item = "CS(=O)(=O)C1(c2nsc(C(=O)NC34CC(c5nc(-c6ccc(F)cc6)no5)(C3)C4)n2)CC1"
79.80

Answer with TI (CC50/IC50 HBsAg) of "CS(=O)(=O)C1(c2ccc(C(=O)NC34CC(c5ccn(-c6ccc(Cl)cc6)n5)(C3)C4)o2)CC1" measured for primary human hepatocyte (PHH).
13.39

Recall the reported TI (CC50/IC50 HBsAg) of "CS(=O)(=O)C1(c2ccc(C(=O)NC34CC(c5ccnc(-c6ccc(Cl)cc6)n5)(C3)C4)o2)CC1" when tested on primary human hepatocyte (PHH).
59.67

---

Tested on: primary human hepatocyte (PHH)
Experiment: Cytotoxicity in PHH natural infection assay (Cell Counting Kit-8)
Type: cell-based
Measurement Parameters: therapeutic index; CC50 by CCK8 in PHH over HBsAg IC50
Value Type: TI (CC50/IC50 HBsAg)
Write no unit; give the number alone.

State its TI (CC50/IC50 HBsAg) for this compound: "CS(=O)(=O)C1(c2nsc(C(=O)NC34CC(c5nc(-c6ccc(Cl)cc6)no5)(C3)C4)n2)CC1"
181.50

Give reported TI (CC50/IC50 HBsAg) value for "CS(=O)(=O)C1(c2ccc(C(=O)NC34CC(c5nc(-c6ccccc6)cs5)(C3)C4)o2)CC1"
12.38

For the compound "CS(=O)(=O)C1(c2nsc(C(=O)NC34CC(c5noc(-c6ccc(Cl)cc6)n5)(C3)C4)n2)CC1" , give its reported TI (CC50/IC50 HBsAg).
65.54

Provide measured TI (CC50/IC50 HBsAg) value, entry: "CS(=O)(=O)C1(c2ccc(C(=O)NC34CC(c5nc(-c6ccc(Cl)c(Cl)c6)cs5)(C3)C4)o2)CC1"
16.69

---

Experiment: Single dose pharmacokinetics (PK) study in male C57BL/6 mouse
Type: in vivo
Measurement Parameters: male, C57BL/6, plasma; mouse, IV bolus 1 mg/kg
Value Type: log10 of clearance (log10 of the value in mL/min/kg)
A value of 2 here means clearance of 100 in mL/min/kg, since values are log10.

Specify reported log10 of clearance for the compound shown: "CS(=O)(=O)C1(c2ccc(C(=O)NC34CC(c5noc(-c6ccc(Cl)cc6)n5)(C3)C4)o2)CC1"
-0.07

Provide log10 of clearance value for the following compound: "CS(=O)(=O)C1(c2ccc(C(=O)NC34CC(c5nc(-c6ccc(Cl)cc6)no5)(C3)C4)o2)CC1"
-0.37

Name the recorded log10 of clearance of the item "CS(=O)(=O)C1(c2ccc(C(=O)NC34CC(c5cnn(-c6ccc(Cl)cc6)n5)(C3)C4)o2)CC1" in your answer.
-0.72

Identify log10 of clearance associated with the compound "CS(=O)(=O)C1(c2nsc(C(=O)NC34CC(c5noc(-c6ccc(Cl)cc6)n5)(C3)C4)n2)CC1"
-0.96

Return log10 of clearance for the following compound: "CS(=O)(=O)C1(c2nsc(C(=O)NC34CC(c5ccnc(-c6ccc(Cl)cc6)n5)(C3)C4)n2)CC1"
-1.15

Give me measured log10 of clearance, please, for this compound: "CS(=O)(=O)C1(c2nsc(C(=O)NC34CC(c5cnn(-c6ccc(Cl)cc6)n5)(C3)C4)n2)CC1"
-1.00

For the compound "CS(=O)(=O)C1(c2ccc(C(=O)NC34CC(c5nc(-c6ccc(Cl)cc6)cs5)(C3)C4)o2)CC1" , give its reported log10 of clearance.
-0.70

---

Experiment: Single dose pharmacokinetics (PK) study in male C57BL/6 mouse
Assay type: in vivo
Measurement Parameters: C57BL/6, plasma, mouse, IV dose 0.4 mg/kg
Value Type: clearance

Given "CS(=O)(=O)C1(c2nsc(C(=O)NC34CC(c5nc(-c6ccc(Cl)cc6)no5)(C3)C4)n2)CC1" , respond with its clearance.
1.8 mL/h/kg

---

Test system: primary human hepatocyte (PHH)
Experiment: Cytotoxicity in PHH natural infection assay (Cell Counting Kit-8)
Type: cell-based
Measurement Parameters: therapeutic index; CC50 by CCK8 in PHH over HBsAg IC50
Value Type: TI (CC50/IC50 HBsAg)
// print number alone

Consider the compound CS(=O)(=O)C1(c2ccn(C(=O)NC34CC(c5ncc(-c6ccc(Cl)cc6)s5)(C3)C4)n2)CC1 [Example 54] and give its recorded TI (CC50/IC50 HBsAg).
10.83

Provide measured TI (CC50/IC50 HBsAg) value, entry: CS(=O)(=O)C1(c2ccc(C(=O)NC34CC(c5nc(-c6cccc(Cl)c6)cs5)(C3)C4)o2)CC1 [Example 2]
20.66

Please supply the value of reported TI (CC50/IC50 HBsAg) for the item CS(=O)(=O)C1(c2ccc(C(=O)NC34CC(c5nc(-c6ccc(Cl)cc6)cs5)(C3)C4)o2)CC1 [Example 1]
27.88

Identify measured TI (CC50/IC50 HBsAg) corresponding to CS(=O)(=O)C1(c2ccc(C(=O)NC34CC(c5nnn(-c6ccc(Cl)cc6)n5)(C3)C4)o2)CC1 [Example 44]
12.20

Write down TI (CC50/IC50 HBsAg) measured for item CS(=O)(=O)C1(c2ccn(C(=O)NC34CC(c5nc(-c6ccc(Cl)cc6)cs5)(C3)C4)n2)CC1 [Example 53]
21.88

---

Experiment: Single dose pharmacokinetics (PK) study in male C57BL/6 mouse
Format: in vivo
Measurement Parameters: male, C57BL/6; mouse plasma, IV bolus 1 mg/kg; read-out: IV AUC0-24h
Value Type: AUC(0-t)

Tell me measured AUC(0-t) for "CS(=O)(=O)C1(c2ccc(C(=O)NC34CC(c5nc(-c6ccc(Cl)cc6)cs5)(C3)C4)o2)CC1" please.
42700 ng·h/mL

# return recorded AUC(0-t) for input "CS(=O)(=O)C1(c2ccc(C(=O)NC34CC(c5nc(-c6ccc(Cl)cc6)no5)(C3)C4)o2)CC1"
24100 ng·h/mL

Query AUC(0-t) for "CS(=O)(=O)C1(c2nsc(C(=O)NC34CC(c5noc(-c6ccc(Cl)cc6)n5)(C3)C4)n2)CC1"
34000 ng·h/mL

Answer with the recorded AUC(0-t) for the compound listed here: "CS(=O)(=O)C1(c2nsc(C(=O)NC34CC(c5cnn(-c6ccc(Cl)cc6)n5)(C3)C4)n2)CC1"
38100 ng·h/mL

Query AUC(0-t) for "CS(=O)(=O)C1(c2nsc(C(=O)NC34CC(c5ccnc(-c6ccc(Cl)cc6)n5)(C3)C4)n2)CC1"
70200 ng·h/mL

Please report AUC(0-t) for the following compound: "CS(=O)(=O)C1(c2ccc(C(=O)NC34CC(c5noc(-c6ccc(Cl)cc6)n5)(C3)C4)o2)CC1"
14900 ng·h/mL

Tell me measured AUC(0-t) for "CS(=O)(=O)C1(c2ccc(C(=O)NC34CC(c5cnn(-c6ccc(Cl)cc6)n5)(C3)C4)o2)CC1" please.
27000 ng·h/mL
